Listing: composite z-score of selected molecules
Target: Focal adhesion kinase 1 (Homo sapiens)
Test: small-molecule microarray binders of FAK, primary screen, biochemical, 635/667 nm fluorescence, BSA, DTT (AID 1130);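 also: composite of spot emission at 667 nm and signal to noise over triplicate slides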
Conditions: PTK2 binding, 635 nm fluorescence, higher = more signal
quantityKind: composite z-score

lineNotation | measurement
C=C1C(=O)C=C2CN(C(=O)c3ccccc3)[C@@](Cc3ccc(F)cc3)(C(=O)OC)[C@@H]12 | 0.69
COC(=O)C(CC#Cc1ccc2c(c1)[C@]1(C(=O)N2)[C@H](C(=O)N2CCN(c3ncccn3)CC2)[C@H]2C(=O)O[C@H](c3ccccc3)[C@H](c3ccccc3)N2[C@@H]1c1ccc(O)cc1)C(=O)OC | 0.904
C=CCOC(=O)[C@@H]1[C@H]2C(=O)O[C@H](c3ccccc3)[C@H](c3ccccc3)N2[C@H](c2ccc(OCCOC(=O)[C@@H]3C[C@@H]4C(=O)N[C@@H](CC(C)C)C(=O)N4[C@@H]3c3ccc(O)cc3)cc2)[C@@]12C(=O)Nc1ccc(I)cc12 | 0.601

###

Target: Torsin-1A-interacting protein 1 (Homo sapiens) (UniProt Q5JTV8)
Sequence (Q5JTV8 whole entry, looked up): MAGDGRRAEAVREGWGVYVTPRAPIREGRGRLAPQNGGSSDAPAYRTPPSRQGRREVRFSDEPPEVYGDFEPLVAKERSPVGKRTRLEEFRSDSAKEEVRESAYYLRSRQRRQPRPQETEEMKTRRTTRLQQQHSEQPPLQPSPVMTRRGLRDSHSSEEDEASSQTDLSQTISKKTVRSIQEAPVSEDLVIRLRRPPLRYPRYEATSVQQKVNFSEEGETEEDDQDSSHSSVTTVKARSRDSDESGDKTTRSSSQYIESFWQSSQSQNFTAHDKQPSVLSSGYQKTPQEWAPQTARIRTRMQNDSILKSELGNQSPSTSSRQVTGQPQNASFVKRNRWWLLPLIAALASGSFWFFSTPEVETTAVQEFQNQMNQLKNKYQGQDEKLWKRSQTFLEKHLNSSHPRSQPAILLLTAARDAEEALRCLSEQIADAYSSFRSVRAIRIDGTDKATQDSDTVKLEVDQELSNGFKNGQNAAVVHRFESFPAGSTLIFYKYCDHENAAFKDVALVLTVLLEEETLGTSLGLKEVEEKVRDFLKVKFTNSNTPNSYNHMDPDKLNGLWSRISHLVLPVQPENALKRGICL
Assay: LAP1 binders from COS7 cell lysate, primary screen, small-molecule microarray, 635/667 nm fluorescence (AID 1116)
Details: COS7-hLAP1 lysate binding, 635 nm fluorescence, higher = more signal

compound | composite z-score
Cc1ccc(S(=O)(=O)N2[C@@H](c3ccccc3)C(C(=O)O)=CC[C@H]2c2ccc(F)cc2)cc1 | 1.94
COCCOC(=O)N1C(=O)[C@@]2(c3cc(C#CCNC(N)=O)ccc31)[C@H](c1ccccc1OCCO)N1[C@H](c3ccccc3)[C@H](c3ccccc3)OC(=O)[C@H]1[C@@H]2C(=O)N1CCCCCCC1 | 1.02
CC(C)(C)OC(=O)CC[C@@]1(C(=O)N2CCOCC2)N=C(c2ccc(OCCCO)cc2)O[C@@H]1c1ccccc1CN=[N+]=[N-] | 3.31
COc1ccc(C#Cc2ccc3c(c2)[C@]2(C(=O)N3)[C@H](c3ccccc3OCCO)N3[C@H](c4ccccc4)[C@H](c4ccccc4)OC(=O)[C@H]3[C@@H]2C(=O)NC[C@H](O)c2ccccc2)cc1 | 1.01
CC(CO)N1C(=O)[C@@H]2[C@H]3C(=O)OCC=C[C@H]3OC23C=CCN(c2ccc4ccccc4c2)C(=O)[C@@H]13 (some centres not stated) | -1.14
C=C(COC)C(=O)CC[C@H](OC(C)=O)c1ccccc1OCCO | 1.59
COc1cc(CO)cc(I)c1O[C@H]1C=C(C(=O)NCCO)C[C@@H](N(CCN2CCOCC2)C(=O)C2CCCO2)[C@@H]1O (some centres not stated) | 0.11

###

Test system: Lefty1
Experiment: Lefty1 binders on small-molecule microarrays, primary screen, biochemical, small-molecule microarray, 635/667 nm fluorescence (AID 1139)
Details: small-molecule microarray binding, fluorescence 635/667; higher = more signal
quantityKind: composite z-score

compound | measurement
C=CC[C@H](O)c1ccc(O)c2ccccc12 | 1.26
COc1c(C)cc(-c2cc3c(c(CCc4ccccc4)n2)[Si](C(C)C)(C(C)C)O[C@H]3c2ccccc2)cc1C | 0.268
CC1C2C(CCCO)=CC(C3C(=O)N(C)C(=O)C23)N1Cc1cccc(OC(F)(F)F)c1 (stereo not given) | 0.286
COc1cc2c(cc1O)C(C)N(Cc1sc3ccccc3c1Cl)CC2 (stereo not given) | -1.44
C=C[C@@H](CO)NS(=O)(=O)c1ccc(Br)cc1 | -0.809
CCCCCCc1nc(Cc2cc(OC)c(OC)c(OC)c2)c(C)c2c1[Si](C(C)C)(C(C)C)OC2 | 0.267
NCCCCCCNC(=O)[C@@H]1C[C@@H]2C(=O)NCC(=O)N2[C@@H]1c1cccc(OCCO)c1 | 1.52
CC[C@@H](O[Si](C#C[Si](C(C)C)(C(C)C)C(C)C)(C(C)C)C(C)C)c1cn(Cc2cccc(Cl)c2)nn1 | 0.809
CCOC(=O)C1=CC[C@@H](c2ccccc2)N(S(=O)(=O)c2ccc(C)cc2)[C@@H]1C#N | -0.0273
C=C(CCCC)C(=O)CC[C@@H](OC(C)=O)c1ccc(OCCO)cc1 | 1.69
